# assay-name: Pharmacokinetic profile of JJS-1-166 in mice (plasma, LC-MS)
# Type: in vivo, C57Bl/6j mice
# experimental-context: male, C57Bl/6j, plasma, subcutaneous, 10 mg/kg; relative to the area under the curve for IV administration, mouse; read-out: SC bioavailability
endpoint-name: bioavailability (%)
Numbers only, in %.

# query: bioavailability of entry CN1CCN(c2ccc3c(c2)[C@H]2CC3CCN2C(=O)OCc2ccccc2)CC1 [JJS-1-166]
45

---

# assay-name: Pharmacokinetic profile of JJS-1-166 in mice (plasma, LC-MS)
# Type: in vivo, C57Bl/6j mice
# experimental-context: male, C57Bl/6j, mouse, plasma, 10 mg/kg, time point 3 h, individual animals; read-out: Drug concentration in the Plasma
endpoint-name: concentration at 3 h (ng/g)
Give bare numbers, in ng/g.

# query: concentration at 3 h of entry CN1CCN(c2ccc3c(c2)[C@H]2CC3CCN2C(=O)OCc2ccccc2)CC1
156

---

# assay-name: Blood brain barrier permeability / brain concentration and brain clearance of JJS-1-166 in mice
# Assay type: in vivo, C57Bl/6j mice
# experimental-context: C57Bl/6j, mouse, brain, 10 mg/kg, time point 24 h, individual animals; read-out: Drug concentration in the Brain
endpoint-name: concentration at 24 h (ng/g)
One number for each entry, in ng/g.

# query: concentration at 24 h of entry CN1CCN(c2ccc3c(c2)[C@H]2CC3CCN2C(=O)OCc2ccccc2)CC1
1.76
